Each item that follows carries a reported %Inh.
# System: CAMK2B
# ASSAY SETUP: concentration: 1 μM, replicates: in singlicate; n = 1;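 further: KINOMEscan kinase panel screen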
Put down the number, then write its unit next to it.

Solved entries (count: 4):
INSERT INTO assay_data (compound, observed) VALUES
  ('Cc1cccc(-c2nc(Nc3ccc4c(cnn4C)c3)c3ccccc3n2)n1', '8%'),
  ('CCC(=O)c1c(-c2ccccc2)c2cc(Cl)ccc2c(=O)n1Cc1cc(C(=O)NC2CC2)n(C)n1', '0%'),
  ('COc1cc(Nc2ccnc3ccc(C(F)(F)F)cc23)cc(OC)c1OC', '0%'),
  ('CCS(=O)c1ccc(-c2coc3ccc(-c4nnc(C)o4)cc23)cc1 (centres unmarked)', '3%');

The compound Cc1ccc(-c2ccc3c(ccc4sc5c(c43)NC[C@@H](C)N=C5N(C)C)n2)cn1 showed %Inh equal to 0%

The compound Nc1n[nH]c2nnc(-c3ccccc3)c(-c3ccccc3)c12 showed %Inh equal to 0%

The compound COc1cc2nccc(Nc3ccc(OCc4ccc(NC(C)=O)cc4)cc3)c2cc1OC.Cl showed %Inh equal to 0%

The compound CCCNC(=O)Nc1ccc(Oc2ncnc3ccn(C)c23)cc1 showed %Inh equal to 1%

The compound COc1cc(OC)cc(-c2cc3cnc(N)nc3nc2NC(=O)NC(C)(C)C)c1 showed %Inh equal to 0%

The compound COc1ccc(Nc2nccc(N3CCC(NS(=O)(=O)c4ccc(NC(C)=O)cc4)C3)n2)cc1 (centres unmarked) showed %Inh equal to 0%

---

# Test system: CHEK2
# ASSAY SETUP: concentration: 1 μM, replicates: in singlicate; n = 1
Each item that follows carries a reported %Inh.
Hi! Could you send only the number? It should be in %, unit omitted.

INSERT INTO assay_data (molecule, target_system, display_unit, observed) VALUES
  ('Cc1cccc(-c2cc(-c3c[nH]nc3-c3ccccn3)ccn2)c1', 'CHEK2', '%', 0);

The molecule CN1C(=O)C(Nc2cc(Cl)c(O)c(Cl)c2)=C(c2ccc(Cl)cc2)C1=O showed %Inh equal to 0

The molecule COc1cc2ncn(-c3cc(OCCCc4ccccc4)c(C(N)=O)s3)c2cc1OC showed %Inh equal to 0

The molecule CCC(=O)c1c(-c2ccccc2)c2cc(Cl)ccc2c(=O)n1Cc1cc(C(=O)NC2CC2)n(C)n1 showed %Inh equal to 6

The molecule CN1C(=O)C(Nc2ccccc2)=C(c2ccccc2)C1=O showed %Inh equal to 0

The molecule CCC(=O)c1c(-c2ccccc2)c2cc(Cl)ccc2c(=O)n1Cc1cc(S(C)(=O)=O)n(CCC(C)(C)O)n1 showed %Inh equal to 19

---

# Tested on: TRKA
# Construct: gene NTRK1
# ASSAY SETUP: concentration: 1 μM, replicates: in singlicate; n = 1
Each item that follows carries a reported %Inh.
Hi! Could you send only the number? It should be in %, unit omitted.

INSERT INTO assay_data (compound, target_system, test_readout, observed) VALUES
  ('Nc1nccc2scc(-c3ccc4c(c3)CCN4C(=O)Cc3ccccc3)c12 [GSK2576924]', 'TRKA', '%Inh', 49);

The compound O=C(Nc1n[nH]c2nc(-c3ccccc3)c(Cl)cc12)C1CC1 [SB-734909] showed %Inh equal to 0

The compound COc1cc(Nc2nccc(N3CCC(NC(=O)C(C)c4ccc(Cl)cc4)C3)n2)cc(OC)c1OC (stereo not drawn) [GSK1379757] showed %Inh equal to 63

The compound CCn1c(-c2ccoc2)nc2cnccc21 [SB-733887] showed %Inh equal to 0

The compound CCS(=O)(=O)c1ccc(OC)c(Nc2ncc(-c3ccc(F)cc3)o2)c1.Cl [GW591947] showed %Inh equal to 15

The compound Cc1nnc(-c2ccc(C)c(-c3ccc(C(=O)O)cc3)c2)o1 [GW608005] showed %Inh equal to 0

The compound Cc1cccc(-c2nc(Nc3ccc4c(cnn4C)c3)c3ccccc3n2)n1 [GW876731] showed %Inh equal to 44

The compound Cc1nnc(-c2ccc3ncn(-c4ccc(S(C)=O)cc4)c3c2)o1 (stereo not drawn) showed %Inh equal to 0

The compound Cl.NS(=O)(=O)c1cccc(Nc2cc(-c3ccc(F)cc3)n[nH]2)c1 [GW824645] showed %Inh equal to 40
